Entries and their measured reference MIC for strains used for killing curve follow.
Test system: E. faecium A6345 Line-R
measurement-protocol: MIC, NCCLS broth microdilution
Assay type: cell-based
setup-conditions: E. faecium A6345 Line-R., first row of Table 3
Answer with a number only, understood to be in µg/mL.

compound	measured
O=C(N[C@H](CO)[C@H](O)c1ccc([N+](=O)[O-])cc1)C(Cl)Cl [Chloramphenicol]	16

// moving on: another record for reference MIC for strains used for killing curve
Q. Which reference MIC for strains used for killing curve value is on record for CO[C@H]1/C=C/O[C@@]2(C)Oc3c(C)c(O)c4c(O)c(c(/C=N/N5CCN(C)CC5)c(O)c4c3C2=O)NC(=O)/C(C)=C\C=C\[C@H](C)[C@H](O)[C@@H](C)[C@@H](O)[C@@H](C)[C@H](OC(C)=O)[C@@H]1C [Rifampin] ?
A. 16
